Entries and their Ratio OD(Variant)/OD(WT)
- experimental-system: HRgpA-6H (Porphyromonas gingivalis) (UniProt P28784)
- test-description: ELISA, coated HRgpA-6H
Form field (numeric): enter value without unit.

Worked set:
>  <binder>
KB001 mouse Fab VL S31D (Fab, V domains shown) VH: EVQLKQSGPGLVAPSQSLSITCTVSGFSLSIYSVHWVRQPPGKGLEWLGMIWGGGSSDYNSALKSRLSISKDNSKSQVFLKMNSLQTDDTAMYYCARNGNFYAMDYWGQGTSVTVSS VL: QIVLTQSPAIMSASLGERVTMTCTASSSVSDSFLHWYQQKPGSSPQLWIYSTSNLASGVPARFSGSGSGTSYSLTISSMEAEDAATYYCHQYHHSPYIYTFGGGTKLEIK

>  <reported-result>
0.902

$$$$
>  <binder>
KB001 mouse Fab VH D58S (Fab, V domains shown) VH: EVQLKQSGPGLVAPSQSLSITCTVSGFSLSIYSVHWVRQPPGKGLEWLGMIWGGGSSSYNSALKSRLSISKDNSKSQVFLKMNSLQTDDTAMYYCARNGNFYAMDYWGQGTSVTVSS VL: QIVLTQSPAIMSASLGERVTMTCTASSSVSSSFLHWYQQKPGSSPQLWIYSTSNLASGVPARFSGSGSGTSYSLTISSMEAEDAATYYCHQYHHSPYIYTFGGGTKLEIK

>  <reported-result>
0.817

$$$$

Please supply the value of reported Ratio OD(Variant)/OD(WT) for the item KB001 mouse Fab VH K64S (Fab, V domains shown) VH: EVQLKQSGPGLVAPSQSLSITCTVSGFSLSIYSVHWVRQPPGKGLEWLGMIWGGGSSDYNSALSSRLSISKDNSKSQVFLKMNSLQTDDTAMYYCARNGNFYAMDYWGQGTSVTVSS VL: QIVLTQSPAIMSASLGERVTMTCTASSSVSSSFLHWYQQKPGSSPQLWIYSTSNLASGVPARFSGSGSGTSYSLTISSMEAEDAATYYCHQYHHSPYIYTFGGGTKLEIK
0.977
